- Tested on: LOX IMVI melanoma
- protocol: NCI-60 one-dose screen, 48 h (100 = growth as untreated, 0 = no growth, -100 = all killed)
- details: 10 µM unless noted
The panel holds about 83,000 compounds, 20% with a hit somewhere; the sample as a whole holds those more often.
readout-kind: growth (%)
State the answer as a number, implicitly in %.

Form field: reported growth of `CN1CCN(Cc2ccc(NC(=O)c3cncc(C#Cc4cnc5ccc(N6CCSCC6)nn45)c3)cc2C(F)(F)F)CC1` -89.8

Form field: reported growth of `Cc1sc2nc(NCc3ccccc3Cl)[nH]c(=O)c2c1C` 68.8

Form field: reported growth of O=C(c1ccc(Cl)cc1)C1[C@H](c2ccc(Cl)cc2)[C@@H](c2ccccc2)NC12C(=O)Nc1ccc(Br)cc12 (some centres undefined) 15.3

Form field: reported growth of `[Cl][Ru].c1ccc(-c2cccc(-c3ccccn3)n2)nc1.c1ccc(-c2ccnc3c2ccc2c(-c4ccccc4)ccnc23)cc1` 37.4

Form field: reported growth of CN1C(=O)N(c2ccccc2)C2N=C(N/N=C/c3ccccc3)SC21 (centres undefined) 23.2

Form field: reported growth of O=C1C2=C(C(=O)c3c(O)cccc31)C(c1ccco1)c1sc(=O)[nH]c1S2 (centres undefined) -2.86

Form field: reported growth of `O=C(CSc1nc2sc3c(c2c(=O)n1-c1ccc(Cl)cc1)CCCC3)NNC(=O)Nc1ccc(Cl)c(C(F)(F)F)c1` 1.34

Form field: reported growth of `Nc1c(C(=O)Nc2ccc(Cl)cc2)sc2nc(-c3cnccn3)cc(-c3cccs3)c12` -16.8

Form field: reported growth of `C/C(=C(/c1ccc(Cl)cc1)c1ccc(OCCN)cc1)c1ccc(C)cc1` 105

* * *

- System: M14 melanoma
- protocol: NCI-60 one-dose screen, 48 h (100 = growth as untreated, 0 = no growth, -100 = all killed)
- details: 10 µM unless noted
The panel holds about 83,000 compounds, 20% with a hit somewhere; the sample as a whole holds those more often.
Cut-off 70% on growth, inclusive. At or above means condition met; below means condition not met.

Record `O=C(Oc1ccc2ccc(=O)oc2c1)c1ccc(Cl)cc1` ; criterion: growth no lower than 70%. Met? condition met

Record `Cn1c(SCC(=O)c2cccs2)nc2ccccc2c1=O` ; criterion: growth no lower than 70%. Met? condition met

Record `COc1ccc(COc2ccc(/C=C3/C(=O)Nc4cc(Cl)ccc43)cc2)cc1` ; criterion: growth no lower than 70%. Met? condition met

Record `COc1cc(-c2nc3ccc(-c4nnc(SCC(=O)Nc5ccc(C(C)=O)cc5)o4)cc3[nH]2)cc(OC)c1OC` ; criterion: growth no lower than 70%. Met? condition met

Record OC1CCc2c(-c3ccc4ncnc(N5CCc6cc(F)c(Cl)cc65)c4c3)cncc21 (configuration not stated) ; criterion: growth no lower than 70%. Met? condition met

Record `CC(=O)Oc1ccccc1C(=O)Nc1cc(C(C)C)ccc1C` ; criterion: growth no lower than 70%. Met? condition not met

Record `OC1CCN(CCCOc2c3ccc(Cl)cc3nc3c2oc2ccc(Cl)cc23)CC1` ; criterion: growth no lower than 70%. Met? condition not met

Record `O=C(CN1CCOCC1)NNc1ncnc2ccccc12` ; criterion: growth no lower than 70%. Met? condition not met

Record `C#Cc1nc(C2=C(C)C(=N\O)/C(=N/O)C2)cs1` ; criterion: growth no lower than 70%. Met? condition met

Record `O=C(N/N=C/c1ccc(Cl)s1)c1[nH]c2ccc(Br)cc2c1-c1ccccc1` ; criterion: growth no lower than 70%. Met? condition not met

Record `O=C1/C(=C/C2=Cc3ccccc3OC2)SC(=S)N1c1ccc(F)cc1` ; criterion: growth no lower than 70%. Met? condition met

Record `OC1CCN(CCCOc2c3ccccc3nc3c2oc2ccccc23)CC1` ; criterion: growth no lower than 70%. Met? condition not met

Record `N[C@@H](Cc1cn(-c2ccnc3ccccc23)nn1)C(=O)O` ; criterion: growth no lower than 70%. Met? condition met

Record `CS(=O)(=O)c1ccc(-c2nc3ccccn3c2-c2nc3ccc([N+](=O)[O-])cc3[nH]2)cc1` ; criterion: growth no lower than 70%. Met? condition met

Record `O=c1[nH]c2ccccc2cc1CSc1ccccc1Nc1nccc(-c2ccc(C(F)(F)F)cc2)n1` ; criterion: growth no lower than 70%. Met? condition met

Record `COc1cccc(NC2=CC(=O)C(C)=C(C)C2=O)c1` ; criterion: growth no lower than 70%. Met? condition met

Record `C/C(=N\NC(N)=O)c1c(O)sc(=O)[nH]c1=O` ; criterion: growth no lower than 70%. Met? condition met

Record `Clc1ccc2c(OCCCN3CCOCC3)c3oc4ccccc4c3nc2c1` ; criterion: growth no lower than 70%. Met? condition not met

Record `Clc1ccc2c(NCCCn3ccnc3)c3oc4ccccc4c3nc2c1` ; criterion: growth no lower than 70%. Met? condition not met

Record CSCCC(C(=O)O)N1C(=O)/C(=C/c2ccc(O)c(O)c2)SC1=S (configuration not stated) ; criterion: growth no lower than 70%. Met? condition met

Record `CC(=NNc1ncnc2ccccc12)c1ccc(S(C)(=O)=O)cc1` ; criterion: growth no lower than 70%. Met? condition met

Record `O=c1[nH]c2ccc(Cl)cc2cc1CSc1ccccc1Nc1nccc(-c2ccc(Cl)cc2)n1` ; criterion: growth no lower than 70%. Met? condition met
